Origin of values: patent US20140314832A1

test target: T1, natural SP-A in rat lung tissue (rat, UniProt P08427 21-248)
T1 construct: The immunohistochemistry is done on rat lung tissue; also called natural SP-A in the lung tissue
protocol details: immunohistochemistry (method of Example 6, rat lung tissue)
measured metric: binding result

binder: Nb19 (VHH, Alpaca VHH clone; screened as phage clone; also called N0; 19; rSPA-Nb) VHH: MQAQLAGQLQLVESGGGLVQPGGSLRLSCTASEFTLDYHSIGWFRQAPGKEREGVSCISYGDGTTFYTDSVKGRFTISRDNAKNTVTLQMNSLKPEDTAVYYCAASPGRLLLFRLCMSEDEYDFWGQGTQVTVSSEPKTPKPQGPRGLAAAGAPVPYPDPLEPRAA
measured metric: binding result
result: binds
--
binder: Nb32 (VHH, Alpaca VHH clone; screened as phage clone; also called N0; 32; rSPA-Nb) VHH: MQAQLAGQLQLVESGGGLVQPGGSLRLSCTASKFHLDSYAVAWFRQTPGKEREAVSFINTSDDVTYFADSVKGRFTISRDNSKNTVYLQMNVLKPEDTSVYVCAAVRSPGPTGPSMQPMWSVPDLYDYWGQGTQVTVSSAHHSEDPGPRGLAAAGAPVPYPDPLEPRAA
measured metric: binding result
result: binds
--
binder: Nb11 (VHH, Alpaca VHH clone; screened as phage clone; also called N0; 11; rSPA-Nb) VHH: MQAQLAGQLQLVESGGGLVQPGGSLRLSCVVSGVTFNNYGMTWVRQAPGKGLEWISTIYSNGHTYYADFVKGRFTISRDNAKNTLYLQMISLKPEDTAKYYCRLTGETYRGQGTQVTVSSEPKTRKPQGPRGLAAAGAPVPYPDPLEPRAA
measured metric: binding result
result: binds
